Values from PubChem BioAssay (NCI)

Method description: NCI Yeast Anticancer Drug Screen. Data for the rad14 strain (AID 159)
Recorded conditions: S. cerevisiae rad14 strain growth inhibition; at 33.0 µM
Experimental: Growth inhibition of yeast strains with defined genetic alterations is measured as a screen for potential anti-cancer activity. Selected strains with alterations in DNA damage repair or cell cycle control were exposed to compounds and growth inhibition was measured relative to vehicle treated controls. The strain used in this assay is rad14
About 79,000 compounds went through this panel and 15% of them were active in at least one assay; those are over-represented in the sample as a whole. The source made the active and inactive calls. No stated cut-off is given here; in the data, active means growth inhibition above about 70%; inactive means the rest.
Respond only with the outcome that fits, drawn from active, inactive

INSERT INTO measurements (compound, class) VALUES
  ('Cc1ccnc(NS(=O)(=O)c2ccc(Nc3c4ccccc4nc4ccccc34)cc2)n1', 'inactive'),
  ('CN(C)N1C(=O)SCC(c2ccccc2)(c2ccccc2)C1=O', 'inactive'),
  ('Nc1nc(Nc2ccccc2)nc(Nc2ccccc2)n1', 'inactive'),
  ('C=Cc1c(C)c(O)cc2c1-c1ccc(O)c(C)c1CC2', 'active'),
  ('O=C(Cc1ccccc1F)NC1=C(Cl)C(=O)c2ccccc2C1=O', 'inactive');

Prompt: I'd appreciate the recorded outcome for O=C(Nc1ccn(C2CC(O)C(COC(c3ccccc3)(c3ccccc3)c3ccccc3)O2)c(=O)n1)c1ccccc1 (stereo unspecified) from this test.
Completion: active

Prompt: I'd appreciate the recorded outcome for `CCc1nc2ccc(N=Nc3c(O)ccc4ccccc34)cc2[nH]1` from this test.
Completion: inactive

Prompt: I'd appreciate the recorded outcome for `O=S(=O)(O)CC[S][Sn]([S]CCS(=O)(=O)O)([c]1ccccc1)[c]1ccccc1` from this test.
Completion: active

Prompt: I'd appreciate the recorded outcome for `O=c1oc(C(C(F)(F)F)C(F)(F)F)nc2ccccc12` from this test.
Completion: inactive

Prompt: I'd appreciate the recorded outcome for `Cc1ccc(Cl)c2c(=O)c3ccccc3[nH]c12` from this test.
Completion: inactive

Prompt: I'd appreciate the recorded outcome for `O=C(O)[C@H]1[C@@H](C2CCCCC2)O[C@@H](C2CCCCC2)O[C@H]1C(F)(F)F` from this test.
Completion: inactive
